Values from patent US20250114463A1

# System Under Test: human GLP-1 receptor (human, UniProt P43220 24-463)
# Measurement Protocol: cell-based or functional assay
Bridges are numbered along the chain shown (N, C = ends). Where no end group is shown, it is not given here. [ ]: non-standard residue; d: D form. The star is where a group is joined. Acetyl(2-(4-imidazolyl)) = O=C(Cc1c[nH]cn1)*; Aib = CC(C)(N)C(=O)O
Record form. Attribute: in vitro Activity Compared to Native Peptide (%), vs GLP-1. Fill in for each entry.
Numbers only, in %.

// query I'd like to know its in vitro Activity Compared to Native Peptide (%), vs GLP-1. The binder in question is H[Aib]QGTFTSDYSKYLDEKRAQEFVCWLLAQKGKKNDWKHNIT-NH2 [triple agonist of SEQ ID NO: 28]
// result 17.2

// query For Y[Aib]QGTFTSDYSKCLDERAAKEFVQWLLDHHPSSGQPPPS (bridge 16-20; not fully specified (C-terminus)) [triple agonist of SEQ ID NO: 69] then?
// result 24.3

// query Same read-out for Y[Aib]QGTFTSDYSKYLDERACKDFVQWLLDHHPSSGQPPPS (bridge 16-20; not fully specified (C-terminus)) [triple agonist of SEQ ID NO: 71] ?
// result 90.1

// query Item: H[Aib]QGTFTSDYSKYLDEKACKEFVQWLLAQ (bridge 16-20; not fully specified (C-terminus)) [triple agonist of SEQ ID NO: 31]
// result 135

// query Also need [Acetyl(2-(4-imidazolyl))][Aib]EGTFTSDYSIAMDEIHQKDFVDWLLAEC (bridge 16-20; not fully specified (C-terminus)) [triple agonist of SEQ ID NO: 84] , thanks.
// result 4.2

For every item in the list below, what is its measured in vitro Activity Compared to Native Peptide (%), vs GLP-1?
1. H[Aib]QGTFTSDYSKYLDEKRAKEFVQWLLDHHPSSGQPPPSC-NH2 (bridge 16-20) [triple agonist of SEQ ID NO: 50]
2. [Acetyl(2-(4-imidazolyl))][Aib]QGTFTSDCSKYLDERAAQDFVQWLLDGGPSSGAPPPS (not fully specified (C-terminus)) [triple agonist of SEQ ID NO: 63]

// result
[67.4, 15.3]

Record in vitro Activity Compared to Native Peptide (%), vs GLP-1 per entry; entries follow.
1. Y[Aib]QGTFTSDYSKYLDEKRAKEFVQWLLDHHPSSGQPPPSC-NH2 (bridge 16-20) [triple agonist of SEQ ID NO: 42]
2. Y[Aib]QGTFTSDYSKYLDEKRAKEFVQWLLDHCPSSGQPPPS-NH2 (bridge 16-20) [triple agonist of SEQ ID NO: 96]
3. [Acetyl(2-(4-imidazolyl))][Aib]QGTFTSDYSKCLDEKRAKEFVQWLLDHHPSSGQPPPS (bridge 16-20; not fully specified (C-terminus)) [triple agonist of SEQ ID NO: 74]
4. H[Aib]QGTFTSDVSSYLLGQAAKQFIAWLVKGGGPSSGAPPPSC-NH2 [triple agonist of SEQ ID NO: 3]

// result
1: 33.9; 2: 34.4; 3: 12.9; 4: 1.8

Quick one: give me in vitro Activity Compared to Native Peptide (%), vs GLP-1 for each item below, same order please.
1. H[Aib]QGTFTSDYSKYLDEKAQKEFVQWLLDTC (bridge 16-20; not fully specified (C-terminus)) [triple agonist of SEQ ID NO: 30]
2. Y[Aib]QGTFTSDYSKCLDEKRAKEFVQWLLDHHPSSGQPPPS-NH2 (bridge 16-20) [triple agonist of SEQ ID NO: 22]
3. [Acetyl(2-(4-imidazolyl))][Aib]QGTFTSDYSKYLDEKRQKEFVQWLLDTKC (bridge 16-20; not fully specified (C-terminus)) [triple agonist of SEQ ID NO: 89]

// result
142
20.1
7.1

// query Using the record for [Acetyl(2-(4-imidazolyl))]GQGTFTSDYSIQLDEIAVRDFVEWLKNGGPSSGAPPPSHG-NH2 [triple agonist of SEQ ID NO: 14] , report its in vitro Activity Compared to Native Peptide (%), vs GLP-1.
// result 28
